The values you see were collected from ChEMBL document CHEMBL4513216.

- System: Plasmodium berghei
- procedure.details: Screen against P. berghei liver stage (PbLuc), transformed with Luciferase, at 10uM
- Format: functional, HepG2
- particulars: tested at 10 uM
The campaign covered roughly 69,000 compounds. About 8,600 (12%) showed an effect of 50% or more. The full list was thinned out, with strong results kept by preference.
The entries below come with measured INHIBITION values attached.
Give the number; % is assumed, so skip it.

Recorded INHIBITION, per entry:
{"columns": ["molecule", "unit.abbrev", "INHIBITION"],
 "data": [
  ["Cc1occc1C(=O)N1C[C@@H](C(=O)NCc2ccco2)C[C@H]2OCC[C@H]21", "%", 32.2],
  ["CC[S+]([O-])CCc1nc(CC(C)C)nn1-c1ccc2c(c1)OCCO2 (stereo not drawn)", "%", 30.3],
  ["CC(NC(=O)CSCC#N)c1ccccc1 (stereo not drawn)", "%", 55.5]
]}

Exercise: Return the recorded INHIBITION value; entry: Cc1nnc([C@@H]2CC[C@@H]3[C@@H](CCN3CC3CCOCC3)O2)o1
Key: -13.7

Exercise: Return the recorded INHIBITION value; entry: CC(C)N(CC(=O)Nc1cccc(C#N)c1)C1CC1
Key: 54.8

Exercise: Return the recorded INHIBITION value; entry: O=C(NC1CCCc2nc(N3CCOCC3)ncc21)C1CCCCC1 (stereo not drawn)
Key: 17.1

Exercise: Return the recorded INHIBITION value; entry: Cc1nn2c(N3CCC(O)CC3)cc(-c3ccccc3)nc2c1C
Key: 41.8

Exercise: Return the recorded INHIBITION value; entry: COC(=O)C(C)(C)NC(=O)C1CC(=O)N(CC2CC2)C1 (stereo not drawn)
Key: 25.1
